MEASURE_NAME: IC50

Task: Record lookup: for CAMKK1 (Homo sapiens, UniProt Q8N5S9), what IC50 belongs to CC1(C)Oc2cc3oc(=O)ccc3cc2C[C@@H]1O [DOH, decursinol] ?
Output: > 100 µM

Task: Record lookup: for CAMKK1 (Homo sapiens, UniProt Q8N5S9), what IC50 belongs to C/C=C(/C)C(=O)O[C@H]1Cc2cc3ccc(=O)oc3cc2OC1(C)C [DA, decursinol angelate] ?
Output: > 100 µM

----------
TESTED_TARGET: DRAK2 (STK17B) (Homo sapiens)
Sequence (O94768 1-372): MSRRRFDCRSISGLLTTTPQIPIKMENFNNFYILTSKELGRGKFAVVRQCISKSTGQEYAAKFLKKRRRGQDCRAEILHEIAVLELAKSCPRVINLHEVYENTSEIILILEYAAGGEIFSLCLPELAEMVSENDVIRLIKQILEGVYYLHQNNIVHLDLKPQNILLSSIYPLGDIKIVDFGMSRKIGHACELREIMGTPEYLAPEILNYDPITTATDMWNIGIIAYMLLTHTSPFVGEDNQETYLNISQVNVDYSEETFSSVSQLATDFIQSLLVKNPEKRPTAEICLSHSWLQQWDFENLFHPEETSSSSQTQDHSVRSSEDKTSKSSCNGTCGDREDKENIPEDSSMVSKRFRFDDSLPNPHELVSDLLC
pKd: −log10 of the molar value.
MEASURE_NAME: pKd

Task: Given the compound C/C=C(/C)C(=O)O[C@H]1Cc2cc3ccc(=O)oc3cc2OC1(C)C [DA, decursinol angelate] , what is its reported pKd?
Output: < 4.30
